- tgt: soluble human BACE-1 catalytic domain (Homo sapiens (Human), UniProt P56817)
- Sequence (P56817 75-416): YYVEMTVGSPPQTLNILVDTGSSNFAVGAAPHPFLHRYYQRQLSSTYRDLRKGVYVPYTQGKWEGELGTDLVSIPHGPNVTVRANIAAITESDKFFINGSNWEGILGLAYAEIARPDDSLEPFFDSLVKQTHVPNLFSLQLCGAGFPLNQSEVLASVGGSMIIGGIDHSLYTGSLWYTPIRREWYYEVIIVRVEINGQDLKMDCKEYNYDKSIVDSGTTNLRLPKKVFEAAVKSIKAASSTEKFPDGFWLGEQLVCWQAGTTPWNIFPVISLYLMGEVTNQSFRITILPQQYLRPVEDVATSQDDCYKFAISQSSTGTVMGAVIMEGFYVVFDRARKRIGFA
- experiment.notes: BACE-1 Ki Assay (BACE-1 HTRF FRET Assay)
- Format: biochemical
- experimental.conditions: Ki calculated from IC50 using the Cheng-Prusoff equation; QSY7-APPswe-Eu substrate, pH 5.0; read-out: BACE1 Ki
readout: Ki (µM)

Please review the entries below; each comes with its answer.
| molecule | u | data.value |
| --- | --- | --- |
| CN1C(=N)NC2(c3cc(NC(=O)c4ccc(Cl)cn4)ccc3F)CC2S1(=O)=O (stereo not shown) [Example 32] | µM | 2.52 |
| CN1C(=N)N[C@@]2(c3cc(NC(=O)c4cnc(OCC(F)(F)F)cn4)ccc3F)CCC[C@H]2S1(=O)=O [Example 16] | µM | 0.007 |

I: CN1C(=N)N[C@@]2(c3cc(NC(=O)c4cnc(C(F)(F)F)cn4)ccc3F)CCC[C@H]2S1(=O)=O [Example 14]
II: CN1C(=N)N[C@@]2(c3cc(NC(=O)c4ccc(C#N)cn4)ccc3F)CCC[C@H]2S1(=O)=O [Example 5]
Query: Compare I and II by numeric Ki and name the larger one. Return value: the label identifying the chosen record.
Result: I
(I: 0.025 µM, II: 0.004 µM)

----------
This section lists pKi readings for soluble human BACE-1 catalytic domain (Homo sapiens (Human)).
pKi: −log10 of the molar value.
readout: pKi

Please review the entries below; each comes with its answer.
| molecule | tgt | pKi |
| --- | --- | --- |
| COc1cnc(C(=O)Nc2ccc(F)c([C@]34CCC[C@H]3S(=O)(=O)N(C)C(=N)N4)c2)c(C)c1 [Example 11] | soluble human BACE-1 catalytic domain (Homo sapiens (Human)) | 7.80 |
| COc1ccc(C(=O)Nc2ccc(F)c([C@]34CCC[C@H]3S(=O)(=O)N(C)C(=N)N4)c2)nc1 [Example 15] | soluble human BACE-1 catalytic domain (Homo sapiens (Human)) | 7.80 |

A: CN1C(=N)N[C@@]2(c3cc(NC(=O)c4cnc(OCCF)cn4)ccc3F)CCC[C@H]2S1(=O)=O [Example 2]
B: Cc1cc(F)cnc1C(=O)Nc1ccc(F)c([C@]23CCC[C@H]2S(=O)(=O)N(C)C(=N)N3)c1 [Example 10]
Query: Lab note: check whether A or B has the lower measured pKi. Return value: the label identifying the chosen record.
Result: A

----------
This section lists Ki readings for soluble human BACE-1 catalytic domain (Homo sapiens (Human)).
readout: Ki (nM)

| compound | readout | data.value |
| --- | --- | --- |
| CN1C(=N)N[C@@]2(c3cc(NC(=O)c4ncc(F)cc4F)ccc3F)CCC[C@H]2S1(=O)=O [Example 9] | Ki | 22 |
| COc1cnc2c(Nc3ccc(F)c([C@]45CCC[C@H]4S(=O)(=O)N(C)C(=N)N5)c3)nccc2n1 [Example 20] | Ki | 36 |

I: COc1cnc2c(Nc3ccc(F)c([C@]45CCC[C@H]4S(=O)(=O)N(C)C(=N)N5)c3)nccc2c1 [Example 19]
II: CN1C(=N)N[C@@]2(c3cc(Oc4ncccc4F)ccc3F)CCC[C@H]2S1(=O)=O [Example 34]
Query: Lab note: check whether I or II has the lower measured Ki. Return value: the label identifying the chosen record.
Result: I
